target: human GPR84 receptor (Homo sapiens, UniProt Q9NQS5); construct: frozen aliquots prepared by acCELLerate; experiment: cAMP HTRF assay for identification of cellular GPR84 antagonists; conditions: CHO-K1 cells stably expressing human GPR84; Forskolin + agonist 6-OAU (EC80); average or median values
Sequence (Q9NQS5 whole entry): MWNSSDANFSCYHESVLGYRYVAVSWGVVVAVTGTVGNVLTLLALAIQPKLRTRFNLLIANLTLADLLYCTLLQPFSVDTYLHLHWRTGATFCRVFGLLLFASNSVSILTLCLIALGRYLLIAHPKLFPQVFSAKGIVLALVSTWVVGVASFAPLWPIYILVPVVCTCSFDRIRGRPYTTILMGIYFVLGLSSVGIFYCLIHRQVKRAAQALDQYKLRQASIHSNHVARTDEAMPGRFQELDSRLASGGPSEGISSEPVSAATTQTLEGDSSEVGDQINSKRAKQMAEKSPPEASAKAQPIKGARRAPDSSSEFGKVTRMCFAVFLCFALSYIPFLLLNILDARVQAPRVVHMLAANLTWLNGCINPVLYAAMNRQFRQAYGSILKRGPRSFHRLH
quantity: IC50 (nM)

The following compounds have reported results that may help.
1) C[C@@H]1Cc2oc(C(=O)NC[C@@H]3CCCO3)c(C(F)(F)F)c2-c2nn(C[C@H]3COCCO3)cc21 (single isomer, unassigned) [Example 255-2] : 16
2) Cc1c(C(=O)NC[C@@H]2COCCO2)oc2c1-c1nn(CC3(F)COC3)cc1CC2 : 47
3) Cc1c(C(=O)NC[C@@H]2COCCO2)oc2c1-c1nn(CCNC(=O)OC(C)(C)C)cc1CC2 : 83
4) Cc1c(C(=O)NC[C@H]2CCOC2)oc2c1-c1nn(Cc3ccccn3)cc1CC2 : 2890

(A) Cc1c(C(=O)Nc2ccn(C)n2)oc2c1-c1nn(Cc3ccccn3)cc1CC2
(B) O=C(NC[C@@H]1CCCO1)c1oc2c(c1C(F)(F)F)-c1nn(C[C@H]3COCCO3)cc1C1(CCC1)C2
Input line: Field: entry with larger IC50 (options A / B ). Kindly state the label of the option you pick.
Output line: A
